Anti-CD28 Fab signal reference
# system tested: anti-CD28 Fab (SEQ ID NOs: 202, 203)
# Sequence (VH, as listed by the source, chain 1 of 2): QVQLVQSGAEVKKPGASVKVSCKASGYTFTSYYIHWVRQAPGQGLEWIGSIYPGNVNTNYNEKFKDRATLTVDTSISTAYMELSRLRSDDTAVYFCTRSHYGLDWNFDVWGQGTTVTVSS
# Sequence (VL, as listed by the source, chain 2 of 2): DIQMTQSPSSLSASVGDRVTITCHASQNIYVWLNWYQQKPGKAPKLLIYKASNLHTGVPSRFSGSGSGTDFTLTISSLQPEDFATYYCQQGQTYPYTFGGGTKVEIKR
# protocol: phage ELISA, Fab on plate;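 further: ELISA of crude clonal phage supernatants on the plate, wells preloaded with CD28 antigen or only blocking buffer, captured phage read out via HRP-linked anti-M13 antibody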

binder	Anti-CD28 Fab signal
PCAAGAMWAWPYCL [Phage-1105]	1.49
SCAAGSTWAWPACL [Phage-1210]	1.07
SCTAGFRIHWPMCF [Phage-1212]	1.06
SCSAGATYTWPACL [Phage-1158]	1.34
